Attribution: ChEMBL document CHEMBL5303304

Assignment: determine reported Growth Rate for the given molecules.
System: U2OS
experiment_description: Incucyte cell viability with U2OS; also: unitless GR value; below 1 slowed growth and below 0 cell loss
Assay type: toxicity, cell-based
condition_info: human, 18 h, 10 µM, compound concentration 10 uM, replicate number 2
Give bare numbers.

// below: answered molecules
NS(=O)(=O)c1ccc(Nc2nc(OCC3CCCCC3)c3nc[nH]c3n2)cc1 :: 0.94
CC/C(=C(\c1ccccc1)c1ccc(OCCN(C)C)cc1)c1ccccc1.O=C(O)CC(O)(CC(=O)O)C(=O)O [TAMOXIFEN CITRATE] :: 0.88
CCn1ccc(Nc2ncc3c(n2)-c2c(nn(C)c2-c2ccc(-c4cnn(C)c4)cc2Cl)CC3)n1 :: 0.13
CCCN1C(=O)c2ccc(Cl)cc2Nc2ncccc21 :: 0.91
O=S(=O)(Nc1nnc2cc(OCC34CC5CC(CC(C5)C3)C4)c(C3CC3)cn12)C1CC1 :: 0.91

Batch: Growth Rate for all items listed.
1. CP(C)(=O)c1ccc(CNC(=O)C2CCN(S(=O)(=O)c3cc(Cl)cc(Cl)c3)CC2)cc1
2. CCCCc1c(-c2ccccc2)nc(N)nc1-c1ccc(OCc2ccccc2)c(F)c1F
3. Cc1[nH]nc2ccc(-c3cncc(OCC(N)Cc4ccccc4)c3)cc12 (stereo not given)
4. Cl.Cl.N=C(N)NCCC[C@H](NC(=O)CC1(CC(=O)N2CCN(C3c4ccccc4NC(=O)c4ccccc43)CC2)CCCC1)C(=O)NCCn1c(=O)n(-c2ccccc2)n(-c2ccccc2)c1=O (stereo not given in full)

1. 0.9
2. 0.55
3. 0.7
4. 0.87

---

System: U2OS
experiment_description: Incucyte cell viability with U2OS; also: unitless GR value; below 1 slowed growth and below 0 cell loss
Assay type: toxicity, cell-based
condition_info: human, 24 h, 10 µM, compound concentration 10 uM, replicate number 2
measurement_label: Growth Rate
Numbers only.

// below: answered compounds
Cc1cc(=O)oc2cc(NC(=O)[C@H](Cc3ccc(I)cc3)NC(=O)[C@H]3N[C@@H]4CC[C@H]3C4)ccc12.O=C(O)C(F)(F)F :: 0.85
OC(c1ccc(-c2ccc(CN3CCN(Cc4ccncc4)CC3)cc2)c(F)c1)(C(F)(F)F)C(F)(F)F :: 0.71
Cn1ncc(NC(=O)c2nc(-c3c(F)cccc3F)sc2N)c1N1CC[C@@H](N)[C@H](F)CC1 :: 0.96
CO[C@H]1CC[C@H](N(c2cc(F)c(Oc3ncc(Cn4nccn4)cc3C(F)(F)F)cc2C(=O)O)C(=O)[C@H]2CC[C@H](C)CC2)CC1 :: 0.87
COCc1c(-c2cc3cc(C)cc(OC)c3s2)c2c(N)ncnn2c1CN[C@@H]1CCNC1=O :: 0.9

Batch: Growth Rate for all items listed.
1. CCN1/C(=C/C(C)=O)Sc2ccc(OC(C)=O)cc21
2. COC[C@@H](CC(C)C)NC1=N/C(=C\c2ccc3ncsc3c2)C(=O)N1C
3. CC(=O)Nc1nc2c(Oc3cc(-c4ccc(C(F)(F)F)cc4)ncn3)cccc2s1 [AMG-517]
4. O=C(NCc1ccc(F)cc1)C1CCN(S(=O)(=O)c2cc(Cl)cc(Cl)c2)CC1
5. CN1CCN(c2ccnc(NCCc3ccccc3)n2)CC1 [TP-040n]
6. C=CC(=O)Nc1cc(Nc2nccc(-n3cc(CN(C)C)c(-c4ccccc4)n3)n2)c(OC)cc1N1CCOCC1 [LAZERTINIB]
7. COc1ccc(CC(=O)NC(N/C(=N/C#N)Nc2cccc3ncccc23)C(C)(C)C)cc1OC (stereo unspecified)

1: 0.9; 2: 0.28; 3: 0.96; 4: 0.98; 5: 0.87; 6: 0.91; 7: 0.82

Batch: Growth Rate for all items listed.
1. Cc1ccc2c(NS(=O)(=O)c3ccccc3Cl)cccc2c1Oc1ncccc1-c1ccnc(N[C@H]2CCCNC2)n1.Cl
2. COC(=O)C1=C(C)NC(C)=C(C(=O)OC(C)C)C1c1cccc2nonc12 (stereo unspecified) [ISRADIPINE]
3. O=C(O)c1ccc(S(=O)(=O)N(Cc2ccc(OC(F)(F)F)cc2)c2ncc(C(F)(F)F)cc2Cl)cc1
4. C[C@@H](Oc1cc(-n2cnc3ccc(OC4CCN(C)CC4)cc32)sc1C(N)=O)c1ccccc1Cl [GSK-579289A]

0.58
0.9
0.85
0.79
